What OD450 at 0.01 nM was measured for each of the following?
Biological target: T1, human CD19 exon1-3-His tag protein (human, UniProt P15391 20-186, limits assumed)
T1 construct: membrane-distal part of the extracellular region, made in HEK293E cells; not shown: His tag
T1 sequence (looked up): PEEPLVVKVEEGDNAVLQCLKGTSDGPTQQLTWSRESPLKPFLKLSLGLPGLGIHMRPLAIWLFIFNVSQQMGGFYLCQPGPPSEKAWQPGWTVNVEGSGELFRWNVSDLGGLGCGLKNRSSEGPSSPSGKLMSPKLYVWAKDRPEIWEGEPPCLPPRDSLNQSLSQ
Assay: ELISA, coated human CD19 exon 1-3-His
All answers are understood in OD450, so give the number only.

Could you tell me which OD450 at 0.01 nM is on file for F3.121.4-L2H1 (antibody, mouse IgG1, kappa, V domains shown, humanized antibody of F3.121.4, VL2+VH1, murine IgG1 constant regions) VH: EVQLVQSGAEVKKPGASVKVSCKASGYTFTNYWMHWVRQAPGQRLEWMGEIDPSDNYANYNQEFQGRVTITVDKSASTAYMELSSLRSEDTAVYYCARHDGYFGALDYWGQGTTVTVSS VL: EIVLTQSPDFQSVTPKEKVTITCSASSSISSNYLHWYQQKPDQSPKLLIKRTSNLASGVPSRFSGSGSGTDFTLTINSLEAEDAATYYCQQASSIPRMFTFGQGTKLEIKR ?
0.05

Could you tell me which OD450 at 0.01 nM is on file for F3.121.4-L3H2 (antibody, mouse IgG1, kappa, V domains shown, humanized antibody of F3.121.4, VL3+VH2, murine IgG1 constant regions) VH: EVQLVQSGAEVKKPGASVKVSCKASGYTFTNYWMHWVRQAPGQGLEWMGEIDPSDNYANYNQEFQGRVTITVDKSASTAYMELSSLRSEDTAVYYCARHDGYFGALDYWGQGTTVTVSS VL: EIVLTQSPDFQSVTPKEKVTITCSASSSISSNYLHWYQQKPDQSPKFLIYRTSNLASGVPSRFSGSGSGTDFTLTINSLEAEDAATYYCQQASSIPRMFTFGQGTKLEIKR ?
0.05

Could you tell me which OD450 at 0.01 nM is on file for F3.121.4-L3H1 (antibody, mouse IgG1, kappa, V domains shown, humanized antibody of F3.121.4, VL3+VH1, murine IgG1 constant regions) VH: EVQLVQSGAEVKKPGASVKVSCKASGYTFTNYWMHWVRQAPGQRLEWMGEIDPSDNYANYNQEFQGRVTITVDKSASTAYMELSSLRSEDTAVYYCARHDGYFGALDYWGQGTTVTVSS VL: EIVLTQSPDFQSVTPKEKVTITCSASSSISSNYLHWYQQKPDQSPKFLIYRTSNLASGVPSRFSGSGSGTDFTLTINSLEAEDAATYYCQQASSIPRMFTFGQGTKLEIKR ?
0.05
